In this section we review reported IC50 values for a set of molecules.
# SYSTEM_NAME: SARM1 (Homo sapiens, UniProt Q6SZW1)
# Construct: made in house; host or cells: NRK1-HEK293T cells, transiently transfected; clarified lysate used unpurified
# ASSAY_PROTOCOL: ARM-SAM-TIR SARM1 IC50 assay (NADase activity, NAD+ cleavage)
# Assay type: biochemical
# COND: ARM-SAM-TIR lysate 5 μg/mL from NRK1-HEK293T cells; 2 h pre-incubation; 5 μM NAD+; 2 hr room temperature; NAD+ and ADPR by RapidFire MS; read-out: SARM1 IC50
OBSERVED_PROPERTY: IC50

{"MOLECULE": "COc1cncc(NC(=O)c2ccc3ccc(Cl)cc3n2)n1 [Example 46]", "REPORTED_MEASUREMENT": "> 30 µM"}
{"MOLECULE": "CCOc1cncc(NC(C)=O)n1 [Example 193]", "REPORTED_MEASUREMENT": "> 30 µM"}
{"MOLECULE": "COc1ccc(CNc2cncc(OC)n2)cc1 [Example 38]", "REPORTED_MEASUREMENT": "5 to 15 µM"}
{"MOLECULE": "CCN1CCN(c2ccc(CNc3cnccn3)cc2)CC1 [Example 182]", "REPORTED_MEASUREMENT": "> 30 µM"}
{"MOLECULE": "COc1cncc(NCc2cccc(Br)c2)n1 [Example 109]", "REPORTED_MEASUREMENT": "5 to 15 µM"}
{"MOLECULE": "Cn1cc(CNc2cncc(OCc3ccccc3)n2)cn1 [Example 115]", "REPORTED_MEASUREMENT": "> 30 µM"}
{"MOLECULE": "CCCCCOc1cncc(NCc2cccnc2)n1 [Example 15]", "REPORTED_MEASUREMENT": "> 30 µM"}
{"MOLECULE": "COc1cncc(NS(=O)(=O)c2cccnc2)n1 [Example 17]", "REPORTED_MEASUREMENT": "> 30 µM"}
{"MOLECULE": "COc1cncc(N(C)Cc2cccnc2)n1 [Example 202]", "REPORTED_MEASUREMENT": "> 30 µM"}
{"MOLECULE": "N#Cc1cncc(NCc2cccnc2)n1 [Example 154]", "REPORTED_MEASUREMENT": "> 30 µM"}
{"MOLECULE": "Oc1cncc(NCc2cccnc2)c1 [Example 14]", "REPORTED_MEASUREMENT": "5 to 15 µM"}

----------
# SYSTEM_NAME: SARM1 (Homo sapiens)
# Construct: made in house; host or cells: NRK1-HEK293T cells, transiently transfected; clarified lysate used unpurified
# Sequence (Q6SZW1 with tags, fused parts or gaps): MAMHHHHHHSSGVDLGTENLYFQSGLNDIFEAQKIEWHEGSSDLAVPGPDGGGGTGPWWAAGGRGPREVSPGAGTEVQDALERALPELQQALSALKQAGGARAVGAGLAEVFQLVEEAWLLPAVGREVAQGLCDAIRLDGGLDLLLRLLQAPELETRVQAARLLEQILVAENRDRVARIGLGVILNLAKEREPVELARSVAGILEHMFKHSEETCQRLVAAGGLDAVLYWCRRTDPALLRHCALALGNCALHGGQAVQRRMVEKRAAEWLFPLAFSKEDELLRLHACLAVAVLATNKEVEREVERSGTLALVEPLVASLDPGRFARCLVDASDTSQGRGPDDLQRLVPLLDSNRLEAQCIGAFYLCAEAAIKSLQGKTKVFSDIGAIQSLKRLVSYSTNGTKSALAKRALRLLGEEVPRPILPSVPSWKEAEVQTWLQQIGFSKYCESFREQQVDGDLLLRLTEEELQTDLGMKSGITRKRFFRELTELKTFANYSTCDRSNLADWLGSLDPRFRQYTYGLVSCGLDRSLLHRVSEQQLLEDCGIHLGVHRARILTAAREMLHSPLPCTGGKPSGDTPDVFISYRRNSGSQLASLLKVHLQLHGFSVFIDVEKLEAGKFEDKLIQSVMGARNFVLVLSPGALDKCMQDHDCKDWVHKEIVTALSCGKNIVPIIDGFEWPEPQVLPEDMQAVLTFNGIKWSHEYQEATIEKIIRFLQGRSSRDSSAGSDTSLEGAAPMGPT
# ASSAY_PROTOCOL: ARM-SAM-TIR SARM1 IC50 assay (NADase activity, NAD+ cleavage)
# Type: biochemical
# COND: ARM-SAM-TIR lysate 5 μg/mL from NRK1-HEK293T cells; 2 h pre-incubation; 5 μM NAD+; 2 hr room temperature; NAD+ and ADPR by RapidFire MS; read-out: SARM1 IC50
pIC50: −log10 of the molar value.
The compounds listed here are annotated with their pIC50.

{"COMPOUND": "CNc1cncc(OCCCCNC(=O)OC(C)(C)C)n1 [Example 169]", "SYSTEM_NAME": "SARM1 (Homo sapiens)", "pIC50": "< 4.52"}
{"COMPOUND": "COc1cnc(NCc2cccnc2)cn1 [Example 203]", "SYSTEM_NAME": "SARM1 (Homo sapiens)", "pIC50": "< 4.52"}
{"COMPOUND": "COc1ncc(NCc2cccnc2)nc1OC [Example 43]", "SYSTEM_NAME": "SARM1 (Homo sapiens)", "pIC50": "4.52 to 4.82"}
{"COMPOUND": "COc1cncc(NCc2cnco2)n1 [Example 68]", "SYSTEM_NAME": "SARM1 (Homo sapiens)", "pIC50": "4.82 to 5.30"}
{"COMPOUND": "COc1cc(NC(=O)c2cnccn2)cnn1 [Example 137]", "SYSTEM_NAME": "SARM1 (Homo sapiens)", "pIC50": "< 4.52"}
{"COMPOUND": "CN(C)c1cncc(NCc2cccnc2)n1 [Example 16]", "SYSTEM_NAME": "SARM1 (Homo sapiens)", "pIC50": "4.52 to 4.82"}
{"COMPOUND": "COc1cncc(NCc2cn(C)cn2)n1 [Example 55]", "SYSTEM_NAME": "SARM1 (Homo sapiens)", "pIC50": "4.52 to 4.82"}
{"COMPOUND": "COc1cncc(NCc2ccc(C(=O)O)cc2)n1 [Example 76]", "SYSTEM_NAME": "SARM1 (Homo sapiens)", "pIC50": "< 4.52"}
{"COMPOUND": "COc1cncc(NC(C)c2ccccc2)n1 (centres unmarked) [Example 32]", "SYSTEM_NAME": "SARM1 (Homo sapiens)", "pIC50": "4.52 to 4.82"}
{"COMPOUND": "COc1cncc(NCc2cnc3c(c2)ncn3C)n1 [Example 48]", "SYSTEM_NAME": "SARM1 (Homo sapiens)", "pIC50": "4.52 to 4.82"}
{"COMPOUND": "CCc1cncc(NCc2cccnc2)n1 [Example 138]", "SYSTEM_NAME": "SARM1 (Homo sapiens)", "pIC50": "4.52 to 4.82"}
{"COMPOUND": "CNc1cc(OC)cnn1 [Example 161]", "SYSTEM_NAME": "SARM1 (Homo sapiens)", "pIC50": "< 4.52"}
{"COMPOUND": "COc1cncc(NCc2ccc(NCCN(C)C)nc2)n1 [Example 113]", "SYSTEM_NAME": "SARM1 (Homo sapiens)", "pIC50": "4.82 to 5.30"}
{"COMPOUND": "COc1cc(NCc2cccnc2)n[nH]c1=O [Example 140]", "SYSTEM_NAME": "SARM1 (Homo sapiens)", "pIC50": "4.52 to 4.82"}
{"COMPOUND": "COc1cncc(NCc2ccc(NS(C)(=O)=O)nc2)n1 [Example 133]", "SYSTEM_NAME": "SARM1 (Homo sapiens)", "pIC50": "4.82 to 5.30"}
{"COMPOUND": "NC(=O)c1cncc(NCc2cccnc2)n1 [Example 212]", "SYSTEM_NAME": "SARM1 (Homo sapiens)", "pIC50": "< 4.52"}
{"COMPOUND": "CCOc1cncc(NCc2ccc(N3CCN(CC)CC3)nc2)n1 [Example 3]", "SYSTEM_NAME": "SARM1 (Homo sapiens)", "pIC50": "4.82 to 5.30"}
{"COMPOUND": "COc1cncc(NCc2cnn(C(C)C)c2)n1 [Example 92]", "SYSTEM_NAME": "SARM1 (Homo sapiens)", "pIC50": "4.82 to 5.30"}
{"COMPOUND": "CCOc1cncc(NC(=O)c2ccccc2)n1 [Example 192]", "SYSTEM_NAME": "SARM1 (Homo sapiens)", "pIC50": "< 4.52"}
{"COMPOUND": "COc1cncc(NCc2cnn(C3CCN(C(C)=O)CC3)c2)n1 [Example 134]", "SYSTEM_NAME": "SARM1 (Homo sapiens)", "pIC50": "4.52 to 4.82"}
{"COMPOUND": "COc1cncc(NCc2cnn3ccccc23)n1 [Example 90]", "SYSTEM_NAME": "SARM1 (Homo sapiens)", "pIC50": "4.52 to 4.82"}
{"COMPOUND": "COc1cncc(NCc2ccc(C3CCN(C)CC3)nc2)n1 [Example 125]", "SYSTEM_NAME": "SARM1 (Homo sapiens)", "pIC50": "4.82 to 5.30"}
{"COMPOUND": "Brc1cncc(OCc2cccnc2)n1 [Example 188]", "SYSTEM_NAME": "SARM1 (Homo sapiens)", "pIC50": "< 4.52"}
